Molecular target: Proteasome subunit beta (Trypanosoma cruzi)
Sequence (whole entry): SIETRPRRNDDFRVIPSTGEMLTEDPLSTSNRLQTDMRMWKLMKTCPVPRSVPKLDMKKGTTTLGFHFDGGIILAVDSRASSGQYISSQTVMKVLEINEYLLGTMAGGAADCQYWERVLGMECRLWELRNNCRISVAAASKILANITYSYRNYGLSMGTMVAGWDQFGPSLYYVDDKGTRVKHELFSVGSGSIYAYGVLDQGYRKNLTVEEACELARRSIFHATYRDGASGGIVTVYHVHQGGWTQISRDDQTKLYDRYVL
Test: Trypanosoma cruzi proteasome chymotrypsin-like activity (TcProtChymo) assay.
Assay type: functional
Parameters: scale not given: direction of the effect not stated beside the values
Conditions: 9.37 µM
Catalogue of Percent Effect values
Quick note: give the figure in %, leave out the unit.

Below, 3 molecules whose answers are already recorded.
* O=C(O)c1ccn(-c2ccccc2NS(=O)(=O)c2ccccc2)n1 | 9.24
* Cc1nnc(C(C)NCC2(c3ccc(Cl)cc3)CCCC2)o1 (stereo unspecified) | 7.07
* CCc1cnc(CN(C(C)=O)C2CCN(CCc3cnn(C)c3)C2)o1 (stereo unspecified) | 9.56

Ask: Give recorded Percent Effect. `Cc1ccc(C(=O)N2CCC3(CCN(C(=O)c4cccnc4)C3)CC2)o1`
Reply: 13.8

Ask: Specify measured Percent Effect for `COC(=O)c1ccc(C(=O)NS(=O)(=O)c2cncc(Br)c2)cc1` .
Reply: 15.7

====

Biological target: Tyrosyl-tRNA synthetase, putative (Trypanosoma cruzi (strain CL Brener)) (UniProt Q4DSP6)
Sequence (whole entry): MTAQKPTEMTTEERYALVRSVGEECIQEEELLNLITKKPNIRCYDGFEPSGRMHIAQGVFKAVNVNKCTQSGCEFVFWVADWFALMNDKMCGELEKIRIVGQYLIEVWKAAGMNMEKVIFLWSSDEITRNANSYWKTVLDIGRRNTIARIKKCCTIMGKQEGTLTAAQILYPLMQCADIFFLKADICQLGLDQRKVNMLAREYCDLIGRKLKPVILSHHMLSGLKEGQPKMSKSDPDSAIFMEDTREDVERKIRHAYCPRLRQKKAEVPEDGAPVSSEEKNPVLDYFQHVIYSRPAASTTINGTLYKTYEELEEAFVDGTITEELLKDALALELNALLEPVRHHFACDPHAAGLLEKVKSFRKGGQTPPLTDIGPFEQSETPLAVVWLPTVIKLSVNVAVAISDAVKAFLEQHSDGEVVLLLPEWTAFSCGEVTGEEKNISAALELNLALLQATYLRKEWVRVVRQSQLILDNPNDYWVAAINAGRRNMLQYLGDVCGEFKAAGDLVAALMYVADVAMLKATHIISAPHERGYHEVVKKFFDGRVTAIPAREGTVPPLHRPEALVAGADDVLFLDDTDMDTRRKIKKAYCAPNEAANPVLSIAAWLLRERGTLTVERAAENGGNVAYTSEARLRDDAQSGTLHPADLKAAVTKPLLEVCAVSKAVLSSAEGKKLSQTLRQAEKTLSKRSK
Assay: Trypanosoma cruzi tyrosyl tRNA synthetase (TcYRS) SOP
Assay type: functional
Parameters: scale not given: direction of the effect not stated beside the values
Details: 30 µM
recorded_endpoint: Percent Effect

Previously resolved entries follow.
* Cc1nc(C)n(CC2CCCN2Cc2cc(C)on2)n1 (stereo not drawn) | 7.06%
* CCCn1c(C)c(CC(=O)N(C)CCOC)c2c1CC(C)(C)CC2=O | 8.64%
* Cc1nc2cc(C(=O)N3CCCC(n4cncn4)C3)ccc2n1C (stereo not drawn) | 13.4%
* O=C(c1cnccn1)N1CCN(Cc2csc(-c3ccccc3)n2)CC1 | -1.22%
* COCc1ccccc1CNCc1c(C)nn(C)c1N(C)C | 6.17%

Ask: Specify measured Percent Effect for `CSc1ncccc1C(=O)N1C[C@H]2CC[C@@H]1CN(c1ncccn1)C2` .
Reply: 11.1%

Ask: Give Percent Effect for the following molecule: CN(C)c1ncccc1CNC(=O)N1CCCC1c1ccsc1 (stereo not drawn)
Reply: 14.6%

====

target: Arginase-2, mitochondrial (Homo sapiens) (UniProt P78540); assay: in vitro enzyme assay to detect the production of urea directly proportional to the activity of Arginase II; assay type: functional; design: scale not given: in the data most compounds retested in dose-response had high values; conditions: 33.3 µM
Sequence (P78540 whole entry): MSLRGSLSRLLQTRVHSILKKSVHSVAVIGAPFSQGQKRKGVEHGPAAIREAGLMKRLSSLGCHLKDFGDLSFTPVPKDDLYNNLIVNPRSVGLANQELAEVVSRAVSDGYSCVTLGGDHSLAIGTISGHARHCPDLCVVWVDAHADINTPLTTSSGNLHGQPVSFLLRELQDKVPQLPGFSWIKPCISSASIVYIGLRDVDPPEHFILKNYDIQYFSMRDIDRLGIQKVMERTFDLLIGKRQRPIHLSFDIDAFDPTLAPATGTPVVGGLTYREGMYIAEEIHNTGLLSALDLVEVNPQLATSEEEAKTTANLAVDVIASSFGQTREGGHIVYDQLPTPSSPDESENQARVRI
Quick list: Percent Effect per entry.
Output spec: scalar in %, unitless text.

Reference set (8 entries):
- CC(C)OCc1ncn2c1CN(Cc1ccc(F)cc1)CCC2: -6.05
- CCCNCC1(O)CCCN(Cc2cccc(C)c2)C1=O (centres undefined): -1.82
- Cc1ccc(N2CCCc3sc(C(=O)NCc4cccnc4)nc32)nn1: -7.19
- CNC(=O)c1cccc(NC(=O)Cn2nc(-c3cccs3)oc2=O)c1: -0.924
- CC(O)CC(C)(C)CNC(=O)NCc1cccc(-n2cncn2)c1 (centres undefined): 4.22
- CCc1nc(CN2CCCN(C(=O)C(C)COC)CC2)cs1 (centres undefined): 3.92
- COCc1ccccc1C(=O)NCCCN1CCCC1C(=O)N(C)C (centres undefined): -2.27
- COCCN1CCc2cc(C(=O)N(C)C)c(NC(C)C)nc2CC1: 0.248

Ask: Look up and report measured Percent Effect for this entry: `Cc1nc(CNC(=O)Cn2nc(-c3ccc(F)cc3)oc2=O)cs1`
Reply: -4.21

Ask: Tell me measured Percent Effect for Cc1ccc(C(=O)N2CCN(C(=O)NC(C)Cn3ccnc3)CC2)o1 (centres undefined) please.
Reply: 2.3

Ask: Fill in reported Percent Effect for this entry: `Cc1ccc(C(=O)N2CCn3cc(CN4CCCCC4)nc3C2)o1`
Reply: 21.3

Ask: In one line, give reported Percent Effect of the entry `CC1CCN(CCCNS(=O)(=O)c2cccc(F)c2)CC1` .
Reply: -13.8

Ask: Give reported Percent Effect value for CC(C)(C)c1nc(CN2CCCC2Cn2cccn2)no1 (centres undefined)
Reply: 6.41

Ask: Write down Percent Effect measured for item Cc1csc(C2CCCN(C(=O)c3cnc[nH]3)C2)n1 (centres undefined)
Reply: -4.41

Ask: Return the recorded Percent Effect value; entry: COCC1c2nnn(CC3CC3)c2CCN1C(=O)c1cccc(F)c1 (centres undefined)
Reply: -0.248

Ask: Give the value of Percent Effect reported for the following: `O=c1ccc(-c2cccs2)nn1CN1CCN(Cc2ccccc2)CC1`
Reply: -10.4

Ask: Return the recorded Percent Effect value; entry: Fc1ccc(CN2CCCC(c3nnc(-c4cnccn4)o3)C2)cc1F (centres undefined)
Reply: -3.02

Ask: // fetch Percent Effect given entry COCCN1CCC(Cc2cncc(-c3ccc(C(=O)O)cc3)n2)C1 (centres undefined)
Reply: -2.55

Ask: Please indicate Percent Effect recorded for `Cc1cnn(CCNCc2ccc(OCc3csc(C)n3)cc2)c1`
Reply: -1.04

Ask: For the compound Cc1nc(CN(C)C2CCN(CC(=O)NC3CCOCC3)C2)no1 (centres undefined) , report Percent Effect.
Reply: -3.14

Ask: Determine its reported Percent Effect: COc1cccc(CNc2nc(O)cc(C3CC(=O)N(C)C3)n2)c1 (centres undefined)
Reply: 2.09

Ask: // Input: `CCCSCC(=O)Nc1ncn(CC(=O)NCc2ccccc2)n1` . Output its Percent Effect only.
Reply: 13.5

Ask: Quote Percent Effect reported for `CCCNC(=O)CSc1nnc2[nH]c(=O)cc(CC)n12` please.
Reply: -1.36

Ask: Hello, please tell me recorded Percent Effect for this one: `Cc1ncsc1C(=O)N(C)Cc1cccc(Cl)c1`
Reply: -2.3

====

Percent Effect for assorted molecules
molecular target: Proteasome subunit beta (Trypanosoma cruzi); assay: Trypanosoma cruzi proteasome chymotrypsin-like activity (TcProtChymo) assay.; type: functional; parameters: scale not given: in the data most compounds retested in dose-response had high values; details: 9.37 µM
Lab book: enter the figure in %, no units written.

Guide cases for Percent Effect, answers given:
* CCn1cnnc1C1CCN(C(=O)c2cccc3c2ccn3C)CC1 | 7.43
* N#Cc1ccc(NCCNc2ccc(C(F)(F)F)cn2)nc1 | 10.7
* Cc1csc([C@@H]2C[C@@H]3CCN(C(=O)c4ccnnc4)C[C@H]3O2)n1 | -0.174
* O=C(c1cnc(C2CC2)s1)N1CCCC(n2cccn2)C1 (centres undefined) | 1.26
* CC(=O)N1CCCCC1c1cc(C(=O)N2CCOCC2)[nH]n1 (centres undefined) | 6.86
* CCn1nccc1CNC(=O)NC1CCCCC1 | 9.98
* O=C(NCCN1CCC(c2cccs2)CC1)c1ccccc1C(F)(F)F | 17.2
* Cc1nc(C2CCCN(C(=O)c3cnn(C(C)(C)C)c3)C2)no1 (centres undefined) | 2.74
* Cc1nc(C)n(CC2CCCN(CCc3ccccn3)C2)n1 (centres undefined) | 1.2
* CC1CCN(Cc2cnc(S(=O)(=O)CC3CC3)n2CC2CCCO2)CC1 (centres undefined) | 0.877

Ask: Report measured Percent Effect on Proteasome subunit beta (Trypanosoma cruzi); entry: Cc1cc(N(C)C)nc(C2(C)CCCN2C(=O)c2cnccn2)n1 (centres undefined)
Reply: 11.4

Ask: Quote Percent Effect with test system Proteasome subunit beta (Trypanosoma cruzi) for CCOc1ncccc1C(=O)N1CCCCC1c1nccs1 (centres undefined)
Reply: -2.7

Ask: Tell me Percent Effect of `NC(=O)C1CCN(c2nc3nccc(-c4ccccc4)c3c(=O)[nH]2)CC1` when tested on Proteasome subunit beta (Trypanosoma cruzi).
Reply: 14.8

Ask: # return Percent Effect for Cc1nc(C)n(CC2CN(CC(=O)Nc3nccs3)CCO2)n1 (centres undefined) , test system: Proteasome subunit beta (Trypanosoma cruzi)
Reply: 7.19

Ask: Specify the recorded Percent Effect for `COc1cccn(CC(=O)N(C)Cc2ccoc2)c1=O` , system: Proteasome subunit beta (Trypanosoma cruzi).
Reply: 2.48

Ask: GET Percent Effect where system = Proteasome subunit beta (Trypanosoma cruzi) and item = O=C(NCc1cccnc1)C1CC(=O)N(CC2CC2)C1 (centres undefined)
Reply: 17.7

Ask: Quote Proteasome subunit beta (Trypanosoma cruzi) Percent Effect for entry Cc1ccc(CC(=O)N2CCCC(c3cc(C)[nH]n3)C2)cn1 (centres undefined) .
Reply: 3.77

Ask: Provide Percent Effect, system Proteasome subunit beta (Trypanosoma cruzi), entry `O=C(N1CCCC1)N1CCN(CC2CC2)c2ncccc2C1`
Reply: 21.8

Ask: Identify measured Percent Effect obtained with Proteasome subunit beta (Trypanosoma cruzi) for `c1nc2c(c(-c3ccsc3)n1)CCN(Cc1ccoc1)CC2` .
Reply: 5.83

Ask: Using Proteasome subunit beta (Trypanosoma cruzi) as the test system, report measured Percent Effect of `COC[C@@H]1CC[C@H]2[C@H](CCN2C(=O)c2ccncc2F)O1` .
Reply: -4.21

Ask: Report Percent Effect on Proteasome subunit beta (Trypanosoma cruzi) for this entry: `Cc1nnc([C@@H]2CC[C@@H]3[C@@H](CCN3S(=O)(=O)c3cccnc3)O2)o1`
Reply: 15.7

Ask: Give Proteasome subunit beta (Trypanosoma cruzi) Percent Effect for the following molecule: `c1cnc(NCc2noc3c2CN(C2CCOCC2)CC3)nc1`
Reply: 15.7

Ask: Consider the molecule `CNC(=O)c1cc2c(nc1NCC(C)C)CCN(S(=O)(=O)C1CC1)CC2` tested on Proteasome subunit beta (Trypanosoma cruzi); state its Percent Effect.
Reply: -7.64

Ask: Param request: Percent Effect | system Proteasome subunit beta (Trypanosoma cruzi) | item CCOc1nnc(CN(C)C2CCCN(c3cccnn3)C2)s1 (centres undefined)
Reply: 17.9
